These data points were gathered from patent US20110135636A1.

target-system: T1, wild type full length EGFR purified from A431 cells (human, UniProt P00533 25-1210)
T1 construct: mature; Bought; coated on ELISA wells; also called full length EGFR receptor antigen; Sigma E3641
test-name: competition ELISA, competitor Ab-3
Parameters: concentration or dose not given beside the values
reported-endpoint: % inhibition (%)
Answer with a number only, understood to be in %.

[
  {
    "binder": "antibody 1344 (antibody, human IgG1, kappa, V domains shown, Chimeric IgG1 kappa) VH: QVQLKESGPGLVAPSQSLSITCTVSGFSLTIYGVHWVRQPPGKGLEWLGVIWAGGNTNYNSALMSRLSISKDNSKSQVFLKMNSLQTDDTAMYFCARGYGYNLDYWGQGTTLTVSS VL: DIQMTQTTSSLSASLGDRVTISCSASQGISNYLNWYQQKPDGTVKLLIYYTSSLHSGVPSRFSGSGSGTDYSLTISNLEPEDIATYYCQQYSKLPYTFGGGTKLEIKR",
    "reported-endpoint": "% inhibition",
    "observed-result": 40
  }
]

Now look at this one.
Lab note: antibody 1284 (antibody, human IgG1, kappa, V domains shown, Chimeric IgG1 kappa) VH: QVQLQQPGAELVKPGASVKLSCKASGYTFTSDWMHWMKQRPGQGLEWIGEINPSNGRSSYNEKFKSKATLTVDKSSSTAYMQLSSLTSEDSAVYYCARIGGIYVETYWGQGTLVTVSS VL: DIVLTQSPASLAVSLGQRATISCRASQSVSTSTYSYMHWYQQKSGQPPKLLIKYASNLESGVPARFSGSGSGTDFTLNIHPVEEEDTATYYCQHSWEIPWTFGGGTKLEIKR gave % inhibition of 9
